Molecular target: human μ-opiate receptor (Homo sapiens, UniProt P35372)
Sequence (P35372 whole entry): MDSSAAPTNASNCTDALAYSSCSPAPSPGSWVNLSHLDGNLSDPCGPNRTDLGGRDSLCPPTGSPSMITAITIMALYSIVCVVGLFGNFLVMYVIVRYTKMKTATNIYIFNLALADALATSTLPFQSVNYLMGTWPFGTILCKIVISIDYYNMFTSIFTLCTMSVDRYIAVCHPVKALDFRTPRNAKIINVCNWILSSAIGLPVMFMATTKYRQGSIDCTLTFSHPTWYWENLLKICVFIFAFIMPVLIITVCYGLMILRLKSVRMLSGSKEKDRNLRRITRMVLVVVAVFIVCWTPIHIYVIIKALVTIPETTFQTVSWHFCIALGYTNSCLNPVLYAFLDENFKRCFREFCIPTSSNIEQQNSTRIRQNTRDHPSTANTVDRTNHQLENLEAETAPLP
Assay: Affinity for the human μ-opiate receptor ([3H]-naloxone displacement, SPA, CHO-K1 membrane preparation)
Format: binding
Settings: read-out: μ-Opioid receptor, Ki
# Lookup of reported Ki keyed by entry
Return type: number; implicit unit nM.

Example entries begin here.
molecule="CN(C)C(c1ccccc1)C1CCC(CCNC(=O)c2ccccc2Cl)CC1 (stereo not shown) [compound 402]" quantity_name=Ki unit_spec=nM observed=7.9
molecule="CN(C)C(c1cccc(F)c1)C1CCC(NC(=O)c2cc3ccccc3s2)CC1 (stereo not shown) [compound 231]" quantity_name=Ki unit_spec=nM observed=45
molecule="CN(C)C(c1ccccc1)C1CCC(CNC(=O)c2cccc(C(F)(F)F)c2)CC1 (single isomer, unassigned) [compound 326]" quantity_name=Ki unit_spec=nM observed=11
molecule="Cc1ccccc1C(=O)NCCC1CCC(C(c2ccccc2)N(C)C)CC1 (single isomer, unassigned) [compound 417]" quantity_name=Ki unit_spec=nM observed=31
molecule="CN(C)C(c1cccc(F)c1)C1CCC(CCNC(=O)c2cccc(Cl)c2)CC1 (single isomer, unassigned) [compound 400]" quantity_name=Ki unit_spec=nM observed=23

Please indicate recorded Ki of CN(C)C(c1cccs1)C1CCC(NC(=O)c2cc(Cl)cc(Cl)c2)CC1 (stereo not shown) [compound 194] measured with human μ-opiate receptor (Homo sapiens, UniProt P35372). 5.3

Lab note: human μ-opiate receptor (Homo sapiens, UniProt P35372) assay, enter Ki for Cc1nc(-c2ccccc2)sc1C(=O)NC1CCC(C(c2cccc(F)c2)N(C)C)CC1 (stereo not shown) [compound 256] here 80

---

Molecular target: human μ-opiate receptor (Homo sapiens)
Assay: Affinity for the human μ-opiate receptor ([3H]-naloxone displacement, SPA, CHO-K1 membrane preparation)
Assay type: binding
Conditions: read-out: μ-Opioid receptor, Ki
Where a name gives a salt, the structure may show the parent alone.
Item-by-item account of Ki

Some solved entries appear below for comparison.
molecule="CN(C)C(c1cccc(F)c1)C1CCC(CCNC(=O)c2cc(F)c(Cl)cc2Cl)CC1 (single isomer, unassigned) [compound 439]" quantity_name=Ki observed="52 nM"
molecule="COc1cccc(OC)c1C(=O)NC1CCC(C(c2ccccc2)N(C)C)CC1 (centres unmarked)" quantity_name=Ki observed="150 nM"
molecule="CN(C)C(c1ccccc1)C1CCC(NCc2ccccc2)CC1 (centres unmarked) [compound 86, hydrochloride]" quantity_name=Ki observed="3.8 nM"
molecule="Cc1oc(-c2ccccc2)cc1C(=O)NCC1CCC(C(c2cccc(F)c2)N(C)C)CC1 (centres unmarked) [compound 353]" quantity_name=Ki observed="96 nM"
molecule="CN(C)C(c1cccc(F)c1)C1CCC(CCNC(=O)c2cccc(Cl)c2)CC1 (single isomer, unassigned) [compound 401]" quantity_name=Ki observed="11 nM"

Retrieve Ki measured for COc1ccc(NC(=O)NC2CCC(C(c3ccccc3)N(C)C)CC2)cc1 (centres unmarked) and print it. 190 nM

Answer with the recorded Ki of CCOC(=O)C=C1CCC(C(c2ccccc2)N(C)C)CC1 (centres unmarked) only. 190 nM

Read off the recorded Ki for CN(C)C(c1ccccc1)C1CCC(CCNC(=O)c2cccc(Cl)c2)CC1 (single isomer, unassigned) [compound 397] 7.2 nM

---

Target: Serotonin (5HT) reuptake (Rattus norvegicus, UniProt P31652)
Construct: synaptosomes are freshly isolated from areas of rat brain; from tissue; host or cells: rat brain synaptosomes (P2 fraction)
Sequence (P31652 whole entry): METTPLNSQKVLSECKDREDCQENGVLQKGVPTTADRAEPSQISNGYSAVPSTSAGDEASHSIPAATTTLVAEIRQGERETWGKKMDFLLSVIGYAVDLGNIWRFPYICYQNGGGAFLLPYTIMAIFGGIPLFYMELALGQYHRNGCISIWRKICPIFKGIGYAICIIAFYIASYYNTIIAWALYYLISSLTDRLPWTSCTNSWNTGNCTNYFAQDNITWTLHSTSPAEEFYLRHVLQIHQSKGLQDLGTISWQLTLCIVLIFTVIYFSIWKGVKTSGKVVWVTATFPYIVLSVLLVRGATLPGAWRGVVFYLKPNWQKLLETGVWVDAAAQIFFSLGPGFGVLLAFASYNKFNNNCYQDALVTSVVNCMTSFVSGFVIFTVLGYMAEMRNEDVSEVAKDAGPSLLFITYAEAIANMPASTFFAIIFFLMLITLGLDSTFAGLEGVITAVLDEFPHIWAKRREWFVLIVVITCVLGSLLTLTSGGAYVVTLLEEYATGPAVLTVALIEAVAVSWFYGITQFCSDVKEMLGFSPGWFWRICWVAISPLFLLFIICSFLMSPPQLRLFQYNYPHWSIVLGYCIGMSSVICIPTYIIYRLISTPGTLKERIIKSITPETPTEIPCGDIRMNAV
Assay: Serotonin (5HT) reuptake inhibition in rat brain synaptosomes (P2 fraction)
Assay type: biochemical
Details: read-out: Serotonin reuptake, % inhibition [10 μM]
Counter-ions that a name gives are not always drawn.
Use 80% as the dividing line for inhibition at 10 µM, with the line itself on the Met side and lower values as Not met.

Before answering, review these 3 worked examples.
molecule="Cc1ccc(C(C2CCC(=CC(=O)N(C)Cc3ccccc3)CC2)N2CCCCC2)cc1 (centres unmarked) [compound 496]" experimental_system="Serotonin (5HT) reuptake (Rattus norvegicus, UniProt P31652)" category_label="Not met"
molecule="CN(C)C(c1ccccc1)C1CCC(NC(=O)Nc2ccccc2[N+](=O)[O-])CC1 (centres unmarked) [compound 76, hydrochloride]" experimental_system="Serotonin (5HT) reuptake (Rattus norvegicus, UniProt P31652)" category_label=Met
molecule="CN(C)C(c1ccccc1)C1CCC(NC(=O)NC2CCCCC2)CC1 (centres unmarked) [compound 80]" experimental_system="Serotonin (5HT) reuptake (Rattus norvegicus, UniProt P31652)" category_label=Met

# evaluate next
Determine whether measured inhibition at 10 µM meets or exceeds 80% for CCOC(=O)CCC1CCC(C(c2ccccc2)N(C)C)CC1 (centres unmarked) [compound 133] Met

---

Measured pKi, listed per entry for reference.
Target: UniProt:P35372
Assay: Affinity for the human μ-opiate receptor ([3H]-naloxone displacement, SPA, CHO-K1 membrane preparation)
Type: binding
Details: read-out: μ-Opioid receptor, Ki
Where a name gives a salt, the structure may show the parent alone.
Note: pKi values are expressed as the negative base-10 logarithm of concentration in M.

Write down pKi measured for item CCOC(=O)C=CC1CCC(C(c2ccccc2)N(C)C)CC1 (centres unmarked) 6.92

Provide measured pKi value, entry: CN(C)C(c1ccccc1)C1CCC(CCNC(=O)Cc2ccccc2)CC1 (centres unmarked) 7.62

Supply reported pKi belonging to this compound: COc1ccc(NC2CCC(C(c3ccccc3)N(C)C)CC2)cc1 (centres unmarked) [compound 89, hydrochloride] 7.23

Item CN(C)C(c1ccccc1)C1CCC(NC(=O)c2cccc(C#N)c2)CC1 (centres unmarked) : provide pKi 6.89

Read the entry CN(C)C(c1cccs1)C1CCC(CNC(=O)c2cc(F)cc(C(F)(F)F)c2)CC1 (centres unmarked) and write its reported pKi. 8.13

Give pKi for the following compound: CN(C)C(CCc1ccccc1)C1CCC(NC(=O)c2cccc(Br)c2)CC1 (centres unmarked) 7.13

Read the entry CCC(C(=O)NCCC1CCC(C(c2ccc(Cl)cc2)N(C)C)CC1)c1ccccc1 (centres unmarked) and write its reported pKi. 7.16

Provide one value: measured pKi of CC(Oc1ccccc1)C(=O)NCC1CCC(C(c2cccc(F)c2)N(C)C)CC1 (single isomer, unassigned) [compound 341] 7.89

---

Molecular target: human μ-opiate receptor (Homo sapiens, UniProt P35372)
Assay: Affinity for the human μ-opiate receptor ([3H]-naloxone displacement, SPA, CHO-K1 membrane preparation)
Format: binding
Details: read-out: μ-Opioid receptor, Ki
Quantity Name: Ki (µM)
Reply with just the number (in µM).

// solved cases for Ki follow
compound="CN(C)C(c1ccccc1)C1CCC(NC(=O)COCc2ccccc2)CC1 (centres unmarked) [compound 254]" quantity_name=Ki observed=0.056
compound="CN(C)C(c1ccccc1)C1CCC(NC(=O)c2csc(-c3ccccc3)n2)CC1 (centres unmarked) [compound 237]" quantity_name=Ki observed=0.048
compound="CN(C)C(c1ccc(Cl)cc1)C1CCC(CCNC(=O)c2ccc(F)cc2F)CC1 (centres unmarked) [compound 436]" quantity_name=Ki observed=0.029
compound="CN(C)C(c1ccccc1)C1CCC(CCNC(=O)c2cncc(Br)c2)CC1 (centres unmarked) [compound 473]" quantity_name=Ki observed=0.018

Let us move to another entry and its Ki.
Find the measured Ki of CCOC(=O)C=C1CCC(C(c2cccc(F)c2)N(C)C)CC1 (centres unmarked) [compound 129] and report it. 0.54

---

Target: UniProt:P35372
Test: Affinity for the human μ-opiate receptor ([3H]-naloxone displacement, SPA, CHO-K1 membrane preparation)
Type: binding
Details: read-out: μ-Opioid receptor, Ki
Quantity Name: pKi
Reminder that pKi is minus the log10 of a molar concentration.

compound="CN(C)C(c1cccs1)C1CCC(NC(=O)c2csc(-c3ccc4c(c3)CCO4)n2)CC1 (stereo not shown)" quantity_name=pKi observed=7.10
compound="CC(Oc1ccccc1)C(=O)NCC1CCC(C(c2cccc(F)c2)N(C)C)CC1 (single isomer, unassigned) [compound 332]" quantity_name=pKi observed=7.70

Consider the compound COc1cccc(CC(=O)NCCC2CCC(C(c3cccs3)N(C)C)CC2)c1 (stereo not shown) . State its measured pKi. 7.29

Consider the compound CCC(C)C(=O)NCC1CCC(C(c2cccc(F)c2)N(C)C)CC1 (single isomer, unassigned) [compound 342] and give its recorded pKi. 7.55

Read the entry CN(C)C(c1ccccc1)C1CCC(CCNC(=O)c2cccc(C#N)c2)CC1 (stereo not shown) and write its reported pKi. 7.89

Note pKi for the compound shown: Cc1oc(-c2ccc(Cl)cc2)cc1C(=O)NC1CCC(C(c2ccccc2)N(C)C)CC1 (stereo not shown) 7.13

Note down pKi recorded for CN(C)C(c1ccccc1)C1CCC(NC(=O)Cc2cccs2)CC1 (stereo not shown) 7.34

Note pKi for the compound shown: CN(C)C(CCc1ccccc1)C1CCC(CNC(=O)c2csc3ccccc23)CC1 (stereo not shown) 7.02

Recall and state the measured pKi for CN(C)C(c1ccc(F)cc1)C1CCC(CCNC(=O)c2csc(-c3ccccc3)n2)CC1 (stereo not shown) . 7.12

Give the reported value of pKi for this record: CN(C)C(c1ccc(Cl)cc1)C1CCC(CNC(=O)CC(C)(C)C)CC1 (stereo not shown) 8.25

Quick one: give measured pKi for CN(C)C(c1cccc(F)c1)C1CCC(CCNC(=O)c2c(F)cccc2F)CC1 (stereo not shown) 7.26

Annotate the compound CN(C)C(c1cccc(F)c1)C1CCC(NC(=O)c2cc(F)cc(F)c2)CC1 (stereo not shown) with its measured pKi. 7.74

State its pKi: CN(C)C(c1ccccc1)C1CCC(CCNC(=O)c2c(Cl)cccc2Cl)CC1 (stereo not shown) 7.51

# return recorded pKi for entry CN(C)C(c1ccccc1)C1CCC(CCNC(=O)c2cccnc2Sc2ccc(Cl)cc2)CC1 (single isomer, unassigned) [compound 470] 7.15

Specify measured pKi for CC(C)S(=O)(=O)c1csc(C(=O)NC2CCC(C(c3cccs3)N(C)C)CC2)c1Cl (stereo not shown) . 7.54

Give pKi for CN(C)C(c1cccs1)C1CCC(CNC(=O)C(c2ccccc2)c2ccccc2)CC1 (stereo not shown) 8.40
